Experiment: CCTE_Harrill_HTTr_Viability_MCF7: CCTE's 6-hour Cell Viability Assessment for the High-Throughput Transcriptomics (HTTr) Platform, in MCF-7 cells cultured in DMEM + 10% fetal bovine serum, Harrill Lab (AID 2284010)
The source made the active and inactive calls. Rule for the calls: active = hit-call score of the fitted dose curve at least 0.9, where 1 is the maximum; inactive = score below 0.9.
Measured property: outcome

- O=C1C(Cl)=C(Cl)C(=O)C(Cl)=C1Cl: inactive
- O=CC=Cc1ccccc1: inactive
- CCOP(=O)(O)OCC: inactive
- CCC(C)(C)O: inactive
- O=S(=O)(c1ccccc1)c1ccccc1: inactive
- C[N+](C)(C)CC(=O)[O-]: inactive
- CCOP(=S)(OCC)Oc1cnc2ccccc2n1: inactive
- O=[N+]([O-])c1ccc(Cl)cc1: inactive
- O=C1Nc2ccc(Cl)cc2C(c2ccccc2)=NC1O (stereo not given): inactive

Attention now shifts to the item below.
q: Give me measured outcome, please, for this compound: COc1cccc([C@@]2(O)CCCC[C@@H]2CN(C)C)c1
a: inactive
